target_of_assay: Recombinant human LSD1 (Homo sapiens, UniProt O60341)
measurement_description: LSD1 inhibition assay (HTRF LSD1 Histone H3K4 mono-demethylation assay, me1->me0)
Assay type: biochemical
measurement_parameters: 20 nM recombinant human LSD1, 95 nM H3K4(me1) biotinylated peptide, 15 min preincubation, 60 min at 25° C., read-out: LSD1 inhibition IC50 (nM range)
property: IC50

Example results:
>>> measured_value("C[C@]1(N)CCN(Cc2cccc(-c3ccc(C#N)c(F)c3)c2C2CC2)C1")
"25 to 100 nM"
>>> measured_value("CC1CC1c1c(CN2[C@@H]3CC[C@H]2[C@@H](N)C3)cccc1-c1ccc(C#N)c(F)c1 (mixture of isomers)")
"25 to 100 nM"
>>> measured_value("N#Cc1ccc(-c2ccc(F)c(CN3[C@H]4CC[C@@H]3[C@H](N)C4)c2OC(F)F)cc1F (single isomer, unassigned)")
"10 to 25 nM"

Task item: Which IC50 is listed for CN1C[C@@H]2C[C@H]1CN2Cc1cc(-c2ccc(C#N)c(F)c2)cc(N2CCCC2)c1 (stereo in doubt) ?
Reply: 100 to 1000 nM

###

target_of_assay: Recombinant human LSD1 (Homo sapiens, UniProt O60341)
measurement_description: LSD1 inhibition assay (HTRF LSD1 Histone H3K4 mono-demethylation assay, me1->me0)
Type: biochemical
measurement_parameters: 20 nM recombinant human LSD1, 95 nM H3K4(me1) biotinylated peptide, 15 min preincubation, 60 min at 25° C., read-out: LSD1 inhibition IC50 (nM range)
property: IC50

Example results:
>>> measured_value("N#Cc1ccc(-c2cccc(C[C@H]3CNCCO3)c2-c2ccno2)cc1F (single isomer, unassigned) [Example 17]")
"10 to 25 nM"
>>> measured_value("C[C@@H]1CCN(Cc2cccc(-c3ccc(C#N)c(F)c3)c2Cl)C[C@H]1N (racemic) [Example 331]")
"> 1000 nM"
>>> measured_value("N#Cc1ccc(-c2cc(CN3[C@@H]4CC[C@H]3[C@@H](N)C4)ccc2OCC(F)(F)F)cc1F (racemic) [Example 316]")
"10 to 25 nM"
>>> measured_value("Cc1cc(NC[C@@H]2CNCCO2)c(Cl)c(-c2ccc(C#N)c(F)c2)c1 (single isomer, unassigned) [Example 87]")
"> 1000 nM"
>>> measured_value("N#Cc1ccc(-c2cccc(Cn3ncc4c3CNCC4)c2-c2cncs2)cc1F [Example 280]")
"100 to 1000 nM"

Task item: Which IC50 is listed for N#Cc1ccc(-c2cc(CC3CNCCO3)ccc2NCc2cnn3c2CCCC3)cc1F (stereo not shown) [Example 117] ?
Reply: > 1000 nM

Task item: Which IC50 is listed for N#Cc1ccc(-c2cccc(CN3CC4(CCCNC4)C3)c2-c2cnco2)cc1F [Example 333] ?
Reply: 10 to 25 nM

Task item: Which IC50 is listed for N#Cc1ccc(-c2cc(C[C@@H]3CN4CCC[C@H]4CO3)ccc2N2CCC2)cc1F [Example 131] ?
Reply: > 1000 nM

Task item: Which IC50 is listed for N#Cc1ccc(-c2cc(CN3[C@@H]4CC[C@H]3[C@@H](N)C4)ccc2OC2CCC2)cc1F (racemic) [Example 312] ?
Reply: 10 to 25 nM

Task item: Which IC50 is listed for N#Cc1ccc(-c2cccc(CN3[C@@H]4CC[C@H]3[C@@H](N)C4)c2OC(F)F)cc1F (single isomer, unassigned) [Example 183] ?
Reply: < 10 nM

###

target_of_assay: Recombinant human LSD1 (Homo sapiens, UniProt O60341)
measurement_description: LSD1 inhibition assay (HTRF LSD1 Histone H3K4 mono-demethylation assay, me1->me0)
Assay type: biochemical
measurement_parameters: 20 nM recombinant human LSD1, 95 nM H3K4(me1) biotinylated peptide, 15 min preincubation, 60 min at 25° C., read-out: LSD1 inhibition IC50 (nM range)
property: IC50

Example results:
>>> measured_value("Cc1cc(CN2C[C@@H]3C[C@H]2CN3C2COC2)c(Cl)c(-c2ccc(C#N)c(F)c2)c1")
"> 1000 nM"
>>> measured_value("N#Cc1ccc(-c2cccc(CN3C[C@]4(N)CC[C@H]3C4)c2C2CC2)cc1")
"25 to 100 nM"
>>> measured_value("N#Cc1ccc(-c2cccc(CN3C[C@]4(N)CC[C@H]3C4)c2OC(F)F)cc1F")
"< 10 nM"

Task item: Which IC50 is listed for N#Cc1ccc(-c2cccc(C[C@@H]3CNCCO3)c2-c2ccno2)cc1 (single isomer, unassigned) ?
Reply: 10 to 25 nM

Task item: Which IC50 is listed for N#Cc1ccc(-c2cccc(CN3[C@@H]4CC[C@H]3[C@@H](N)C4)c2N2CCC2)cc1F (racemic) ?
Reply: 25 to 100 nM

Task item: Which IC50 is listed for N#Cc1ccc(-c2cccc(C[C@@H]3CNCCO3)c2-c2ccns2)cc1F ?
Reply: < 10 nM

Task item: Which IC50 is listed for N#Cc1ccc(-c2cc(CC3CNCCO3)ccc2N2CCCC3(CCOC3)C2)cc1F (stereo not shown) ?
Reply: 100 to 1000 nM

Task item: Which IC50 is listed for N#Cc1ccc(-c2ccc(F)c(CC3CNCCO3)c2-c2cncs2)cc1F (stereo not shown) ?
Reply: 10 to 25 nM

Task item: Which IC50 is listed for CN[C@@H]1C[C@@H]2CC[C@H]1N2Cc1cccc(-c2ccc(C#N)cc2)c1-c1ccns1 (single isomer, unassigned) ?
Reply: < 10 nM

Task item: Which IC50 is listed for N#Cc1ccc(-c2cccc(CC3CCCNC3)c2-c2ccns2)cc1F (stereo not shown) ?
Reply: < 10 nM

Task item: Which IC50 is listed for N#Cc1ccc(-c2cccc(CC3CNCCCO3)c2N2CCC2)cc1F (stereo not shown) ?
Reply: 25 to 100 nM

Task item: Which IC50 is listed for N#Cc1ccc(-c2cccc(CN3[C@@H]4CC[C@H]3[C@@H](N)C4)c2OCC2CC2)cc1F (racemic) ?
Reply: 25 to 100 nM

Task item: Which IC50 is listed for N#Cc1ccc(-c2cc(CC3CNCCO3)ccc2N2CCCC2)cc1F (stereo not shown) ?
Reply: 100 to 1000 nM

###

target_of_assay: Recombinant human LSD1 (Homo sapiens, UniProt O60341)
measurement_description: LSD1 inhibition assay (HTRF LSD1 Histone H3K4 mono-demethylation assay, me1->me0)
Format: biochemical
measurement_parameters: 20 nM recombinant human LSD1, 95 nM H3K4(me1) biotinylated peptide, 15 min preincubation, 60 min at 25° C., read-out: LSD1 inhibition IC50 (nM range)
property: IC50

Example results:
>>> measured_value("COCc1c(CN2[C@@H]3CC[C@H]2[C@@H](N)C3)cccc1-c1ccc(C#N)c(F)c1 (racemic) [Example 320]")
"100 to 1000 nM"
>>> measured_value("CC1(O)CC2(CN(c3ccc(CC4CNCCO4)cc3-c3ccc(C#N)c(F)c3)C2)C1 (stereo not drawn) [Example 165]")
"100 to 1000 nM"

Task item: Which IC50 is listed for Cc1cc(CC2CNCCO2)c(-c2ccns2)c(-c2ccc(C#N)cc2)c1 (stereo not drawn) [Example 53] ?
Reply: 10 to 25 nM

###

target_of_assay: Recombinant human LSD1 (Homo sapiens)
measurement_description: LSD1 inhibition assay (HTRF LSD1 Histone H3K4 mono-demethylation assay, me1->me0)
Type: biochemical
measurement_parameters: 20 nM recombinant human LSD1, 95 nM H3K4(me1) biotinylated peptide, 15 min preincubation, 60 min at 25° C., read-out: LSD1 inhibition IC50 (nM range)
property: IC50

Example results:
>>> measured_value("N#Cc1ccc(-c2cccc(CN3C[C@H](N)C[C@H](F)C3)c2Cl)cc1F")
"100 to 1000 nM"
>>> measured_value("CN1CCC2CN(Cc3cccc(-c4ccc(C#N)c(F)c4)c3C3CC3)CC21 (stereo not drawn)")
"100 to 1000 nM"
>>> measured_value("Cc1ccncc1-c1ccc(CC2CNCCO2)cc1-c1ccc(C#N)c(F)c1 (stereo not drawn)")
"100 to 1000 nM"
>>> measured_value("N#Cc1ccc(-c2cccc(C[C@H]3CNCCO3)c2-c2ocnc2F)cc1F")
"< 10 nM"
>>> measured_value("CC(C)Oc1ccc(CN2[C@@H]3CC[C@H]2[C@@H](N)C3)cc1-c1ccc(C#N)c(F)c1 (racemic)")
"10 to 25 nM"

Task item: Which IC50 is listed for COCCOc1ccc(-c2ccc(CC3CNCCO3)cc2-c2ccc(C#N)c(F)c2)cc1 (stereo not drawn) ?
Reply: 25 to 100 nM

###

target_of_assay: Recombinant human LSD1 (Homo sapiens)
measurement_description: LSD1 inhibition assay (HTRF LSD1 Histone H3K4 mono-demethylation assay, me1->me0)
Type: biochemical
measurement_parameters: 20 nM recombinant human LSD1, 95 nM H3K4(me1) biotinylated peptide, 15 min preincubation, 60 min at 25° C., read-out: LSD1 inhibition IC50 (nM range)
property: IC50

Task item: Which IC50 is listed for N#Cc1ccc(-c2cc(CN3[C@@H]4CC[C@H]3[C@@H](N)C4)ccc2COC(F)F)cc1F (racemic) [Example 313] ?
Reply: 10 to 25 nM

Task item: Which IC50 is listed for N#Cc1ccc(-c2ccc(F)c(CN3C[C@@H]4[C@H](N)[C@@H]4C3)c2Cl)cc1F [Example 291] ?
Reply: 100 to 1000 nM

Task item: Which IC50 is listed for N#Cc1ccc(-c2cc(CC3CNCCO3)ccc2N2CC(c3cccnc3)C2)cc1F (stereo not drawn) [Example 107] ?
Reply: 100 to 1000 nM

Hello, the source for this data is patent US20260209214A1, in case you need it.
